Biological target: hLTBP3-proTGFβ1 as produced in the cell-based activation assay (human, UniProt P01137 30-390; Q9NS15 44-1303)
Sequence (P01137 30-390 limits assumed, chain 1 of 2): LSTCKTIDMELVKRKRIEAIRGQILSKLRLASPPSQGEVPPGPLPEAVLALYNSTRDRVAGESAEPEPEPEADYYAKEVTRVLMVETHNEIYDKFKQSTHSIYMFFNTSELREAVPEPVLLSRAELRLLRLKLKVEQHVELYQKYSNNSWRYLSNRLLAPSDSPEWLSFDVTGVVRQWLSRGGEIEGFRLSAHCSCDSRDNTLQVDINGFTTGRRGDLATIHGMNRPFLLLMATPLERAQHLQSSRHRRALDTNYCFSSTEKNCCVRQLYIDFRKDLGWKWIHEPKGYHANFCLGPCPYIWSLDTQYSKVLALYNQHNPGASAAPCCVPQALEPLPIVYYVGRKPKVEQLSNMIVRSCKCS
Sequence (Q9NS15 44-1303 limits assumed, chain 2 of 2): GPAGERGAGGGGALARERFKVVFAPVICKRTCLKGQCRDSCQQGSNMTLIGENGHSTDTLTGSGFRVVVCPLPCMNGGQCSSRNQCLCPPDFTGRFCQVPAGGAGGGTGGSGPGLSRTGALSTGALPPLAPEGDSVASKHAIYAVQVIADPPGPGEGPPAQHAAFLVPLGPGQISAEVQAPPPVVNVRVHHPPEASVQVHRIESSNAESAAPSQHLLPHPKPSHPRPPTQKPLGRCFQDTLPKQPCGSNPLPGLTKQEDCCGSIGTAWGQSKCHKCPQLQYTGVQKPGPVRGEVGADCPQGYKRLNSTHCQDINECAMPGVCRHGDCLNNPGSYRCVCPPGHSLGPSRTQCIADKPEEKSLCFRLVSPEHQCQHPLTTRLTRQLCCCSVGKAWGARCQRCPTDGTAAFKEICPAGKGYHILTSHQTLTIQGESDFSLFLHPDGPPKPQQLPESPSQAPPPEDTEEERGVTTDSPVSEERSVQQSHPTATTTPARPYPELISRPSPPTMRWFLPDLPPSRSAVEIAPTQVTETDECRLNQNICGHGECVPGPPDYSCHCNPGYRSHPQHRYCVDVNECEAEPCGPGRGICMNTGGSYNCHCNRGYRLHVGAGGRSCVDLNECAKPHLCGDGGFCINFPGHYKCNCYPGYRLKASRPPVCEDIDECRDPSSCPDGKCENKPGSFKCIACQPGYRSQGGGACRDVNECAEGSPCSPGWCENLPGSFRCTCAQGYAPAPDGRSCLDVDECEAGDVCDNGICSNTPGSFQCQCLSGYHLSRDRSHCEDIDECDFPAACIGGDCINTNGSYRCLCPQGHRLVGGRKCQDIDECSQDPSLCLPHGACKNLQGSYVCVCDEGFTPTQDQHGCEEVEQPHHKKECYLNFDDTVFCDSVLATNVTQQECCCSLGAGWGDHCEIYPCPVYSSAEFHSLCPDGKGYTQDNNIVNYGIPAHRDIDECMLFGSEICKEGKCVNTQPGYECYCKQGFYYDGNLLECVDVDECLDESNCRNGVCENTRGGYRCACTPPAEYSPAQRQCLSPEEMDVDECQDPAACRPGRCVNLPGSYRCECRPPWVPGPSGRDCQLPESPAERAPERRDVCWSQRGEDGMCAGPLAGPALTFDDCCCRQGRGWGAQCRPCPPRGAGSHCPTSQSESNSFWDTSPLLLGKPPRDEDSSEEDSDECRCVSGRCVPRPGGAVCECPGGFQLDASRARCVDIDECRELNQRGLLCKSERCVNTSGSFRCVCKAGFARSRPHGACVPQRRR
Assay: cell-based or functional assay
I'd appreciate it if you could supply IC50, reporter cell assay values for the items below.
Give bare numbers, in nM.

Ab20 (antibody, IgG4, V domains shown) VH: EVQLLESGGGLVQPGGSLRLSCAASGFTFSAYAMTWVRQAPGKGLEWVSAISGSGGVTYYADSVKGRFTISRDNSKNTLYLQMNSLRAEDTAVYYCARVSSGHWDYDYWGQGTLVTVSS VL: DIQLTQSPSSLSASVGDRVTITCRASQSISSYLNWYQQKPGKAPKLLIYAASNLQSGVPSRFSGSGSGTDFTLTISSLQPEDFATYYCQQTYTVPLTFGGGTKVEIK = 1.18
Ab21 (antibody, V domains shown) VH: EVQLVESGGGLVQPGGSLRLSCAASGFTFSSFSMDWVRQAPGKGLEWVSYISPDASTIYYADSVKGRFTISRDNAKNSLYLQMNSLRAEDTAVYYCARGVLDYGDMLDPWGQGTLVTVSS VL: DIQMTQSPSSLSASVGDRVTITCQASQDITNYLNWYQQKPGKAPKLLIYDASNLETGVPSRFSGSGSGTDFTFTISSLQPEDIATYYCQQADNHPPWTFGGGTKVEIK = 0.765
Ab11 (antibody, IgG4, V domains shown) VH: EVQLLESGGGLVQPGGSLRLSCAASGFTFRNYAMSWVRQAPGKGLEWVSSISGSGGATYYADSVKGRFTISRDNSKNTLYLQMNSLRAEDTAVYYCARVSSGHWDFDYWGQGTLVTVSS VL: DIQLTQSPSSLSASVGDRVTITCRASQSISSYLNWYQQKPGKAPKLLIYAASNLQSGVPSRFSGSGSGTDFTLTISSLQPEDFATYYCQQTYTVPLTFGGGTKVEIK = 1.56

## Input // query IC50, reporter cell assay value for entry Ab23 (antibody, V domains shown) VH: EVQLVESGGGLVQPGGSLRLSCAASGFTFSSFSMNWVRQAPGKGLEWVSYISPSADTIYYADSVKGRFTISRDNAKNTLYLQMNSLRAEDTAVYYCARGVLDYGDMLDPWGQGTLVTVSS VL: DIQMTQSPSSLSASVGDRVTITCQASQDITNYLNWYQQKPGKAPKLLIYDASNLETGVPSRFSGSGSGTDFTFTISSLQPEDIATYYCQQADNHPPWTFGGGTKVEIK
## Output 0.879

Hey, just so you know, these numbers are from patent US20250215072A1.
